- Assay Method Text: Plasma PK and tissue distribution after oral dosing of INTERMEDIATE C4 (3 mg/kg)
- Format: in vivo
- Condition Set: male, Wistar Han, rat, plasma, po, 3 mg/kg, PO 3 mg/kg INTERMEDIATE C4, male Wistar Han rat, 8 hr; read-out: plasma Concentration individual

Compound: CC(C)CN(c1ccc([C@H](C)CC(=O)O)cc1Nc1cnc(Cl)cn1)C1CCOCC1 [intermediate C4]
concentration at 8 h: 33.7 ng/mL

----------
- Assay Method Text: Plasma PK and tissue distribution after oral dosing of INTERMEDIATE C4 (3 mg/kg)
- Type: in vivo
- Condition Set: male, Wistar Han, rat, liver, po, 3 mg/kg, PO 3 mg/kg INTERMEDIATE C4, male Wistar Han rat, 1 hr; read-out: liver Concentration individual
Reported Property: concentration at 1 h (ng/g)

Compound: CC(C)CN(c1ccc([C@H](C)CC(=O)O)cc1Nc1cnc(Cl)cn1)C1CCOCC1 [intermediate C4]
Reported Property: concentration at 1 h
Units Text: ng/g
Endpoint Value: 3690
